Experiment: Novel Modifiers of Survival Motor Neuron (SMN) Protein: Gene Identification via Genome-wide siRNA Screen;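 note: luminescence tracks full-length SMN protein made from the SMN2 reporter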
Conditions: HEK293T SMN2-luciferase reporter, siRNA knockdown, 72 h; actives lie on both sides
About 1,400 (4.5%) of roughly 31,000 sequences were called active.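 Rule for the calls: active = median seed-adjusted z-score above 1 or below -1; inactive = the rest.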 The sample as a whole holds a higher share of actives than the screen did.
One label from this list, please: T = active, F = inactive

Prompt: Returns: the outcome recorded for GAAGGAGUUUGCACAGAAATT against DHDH in this assay.
Completion: F

Prompt: Returns: the outcome recorded for CACUUACGGUGUGAAAGGATT against SOX5 in this assay.
Completion: F

Prompt: Returns: the outcome recorded for CGAGCUGACUUCAACAGGATT against STC1 in this assay.
Completion: T

Prompt: Returns: the outcome recorded for GCUUAUGCGUAGAUCCUUUTT against SMYD4 in this assay.
Completion: F

Prompt: Returns: the outcome recorded for CCAUUGUCUUCCACCGAAATT against RAN in this assay.
Completion: T

Prompt: Returns: the outcome recorded for GGACGAUGUCUACAGCCUATT against SIN3B in this assay.
Completion: F

Prompt: Returns: the outcome recorded for CACGCAGAGUUACCGAAAATT against SPEN in this assay.
Completion: T

Prompt: Returns: the outcome recorded for GAGCUACAUUACUAAGUCATT against ZNF223 in this assay.
Completion: F

Prompt: Returns: the outcome recorded for GACAGACUGUGCAUAUGUATT against GPR15 in this assay.
Completion: F

Prompt: Returns: the outcome recorded for CGGUGGGAUGGGAACGAAATT against DRAP1 in this assay.
Completion: T

Prompt: Returns: the outcome recorded for GGACUCUACUGCUAAAGUATT against TBC1D8B in this assay.
Completion: F

Prompt: Returns: the outcome recorded for GGAACCUGGAGAUAUCAUUTT against FUT8 in this assay.
Completion: F

Prompt: Returns: the outcome recorded for GGAUCGAACCCAUGGAUCATT against ROCK2 in this assay.
Completion: F

Prompt: Returns: the outcome recorded for GCAUCAGCUCACAACAAAATT against SF3B4 in this assay.
Completion: T

Prompt: Returns: the outcome recorded for CAGCGUGCAUUUUCACUAATT against AKAP11 in this assay.
Completion: F

Prompt: Returns: the outcome recorded for GGAAUACAGUGACGACAAATT against ING5 in this assay.
Completion: F

Prompt: Returns: the outcome recorded for GCUCAUUCCUUUUCGAGCATT against PEG3 in this assay.
Completion: F

Prompt: Returns: the outcome recorded for CCUCAGGGAAGUACCCAAATT against RNASE8 in this assay.
Completion: F

Prompt: Returns: the outcome recorded for GAAAAUCACCAAAACAUACTT against WHSC1 in this assay.
Completion: T

Prompt: Returns: the outcome recorded for GAGUCAGGAUCGCAAGUCATT against SAFB2 in this assay.
Completion: F

Prompt: Returns: the outcome recorded for GCUGCUCUGUUGAUGCUUATT against POMT1 in this assay.
Completion: F

Prompt: Returns: the outcome recorded for GGAUGAGAAAGUCGUGAAATT against TSHZ2 in this assay.
Completion: F

Prompt: Returns: the outcome recorded for GGAAAAGUUCUGAAGACUATT against CPOX in this assay.
Completion: F

Prompt: Returns: the outcome recorded for GGAUCAGUAAUAUACCACATT against MTFMT in this assay.
Completion: F

Prompt: Returns: the outcome recorded for GGAUUUGGAGUAGAUCAAUTT against TIAL1 in this assay.
Completion: F

Prompt: Returns: the outcome recorded for ACAAGACUCUGGACAUUAATT against DHRS4 in this assay.
Completion: F

Prompt: Returns: the outcome recorded for GAGUCACAGUUGAAGAUCUTT against GOT2 in this assay.
Completion: F

Prompt: Returns: the outcome recorded for GGAUCUUGAAUUCAACUAUTT against TLR8 in this assay.
Completion: F

Prompt: Returns: the outcome recorded for GGAGCCUUGUUGAUCCUUATT against FRAP1 in this assay.
Completion: T

Prompt: Returns: the outcome recorded for GCAUUACCGCGAUGAAUUATT against DNAI1 in this assay.
Completion: F

Prompt: Returns: the outcome recorded for CUUCUGAACUCGGUCCUCATT against SLC5A5 in this assay.
Completion: T

Prompt: Returns: the outcome recorded for GCACCAUCGUCCUUGAACATT against DUOX1 in this assay.
Completion: T

Prompt: Returns: the outcome recorded for UCAUGUGCCUGGAAAUUAATT against AIRE in this assay.
Completion: F

Prompt: Returns: the outcome recorded for GGAUUGAAGGUGUUCACUATT against PZP in this assay.
Completion: F

Prompt: Returns: the outcome recorded for GUCUCUGACGGGUCCAUUATT against BMP1 in this assay.
Completion: F

Prompt: Returns: the outcome recorded for GUACUUUUGACAACAUUUATT against NAT13 in this assay.
Completion: F

Prompt: Returns: the outcome recorded for CCAUAAUGAUAGAGUUUAATT against SLC24A4 in this assay.
Completion: F

Prompt: Returns: the outcome recorded for GGUCUGAAACUCUACUAUATT against SHPRH in this assay.
Completion: F

Prompt: Returns: the outcome recorded for CGACACCGGAUAAACCAAATT against HES1 in this assay.
Completion: F

Prompt: Returns: the outcome recorded for GGCAGAGCCUGACCACUUUTT against LOC100137047-PLA2G4B in this assay.
Completion: F

Prompt: Returns: the outcome recorded for GGUGGUCCAUGAAAAAGCATT against SOD1 in this assay.
Completion: F

Prompt: Returns: the outcome recorded for CUGCCUACGUGAACUGGAUTT against TPSG1 in this assay.
Completion: F

Prompt: Returns: the outcome recorded for CAAGGGUUUUCUUACAAUATT against GNA13 in this assay.
Completion: F

Prompt: Returns: the outcome recorded for GCACUACUCCGAGAAGUUATT against NEK6 in this assay.
Completion: F

Prompt: Returns: the outcome recorded for GCACUCAUGUCAUACUGAATT against LIPA in this assay.
Completion: F

Prompt: Returns: the outcome recorded for CCGCUGAACCUGUUGAAGATT against SGMS2 in this assay.
Completion: F

Prompt: Returns: the outcome recorded for GGCUAACUACUGAGCUGAATT against C1RL in this assay.
Completion: F

Prompt: Returns: the outcome recorded for GGCUCCUCCUUGUACUCAATT against FOXO3 in this assay.
Completion: F

Prompt: Returns: the outcome recorded for GCGUCAUGAUGUUCACCUATT against ITGB5 in this assay.
Completion: F

Prompt: Returns: the outcome recorded for CAGUGUUAGUACUCGAUAATT against EXT2 in this assay.
Completion: F

* * *

Provide the reported median seed-adjusted z-score of each item.
Assay: Novel Modifiers of Survival Motor Neuron (SMN) Protein: Gene Identification via Genome-wide siRNA Screen;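 note: luminescence tracks full-length SMN protein made from the SMN2 reporter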
Conditions: HEK293T SMN2-luciferase reporter, siRNA knockdown, 72 h; actives lie on both sides
Protocol: Spinal muscular atrophy (SMA) is the most common neuromuscular autosomal recessive disorder and one of the leading genetic causes of infant death. […] Briefly, 1 pmol of each siRNA was spotted to a well of a 384-well plate (Corning, Corning, NY) and 20 microL of serum-free DMEM containing […] of Lipofectamine RNAiMax (Life Technologies, Carlsbad, CA) was then added to each well. […] Raw luminescence reads were normalized to Ambion(R) Silencer(R) Negative Control #2 siRNA, then log10 transformed. […]
Out of some 31,000 sequences screened, about 1,400 (4.5%) were called active. This excerpt belongs to a sample that is enriched for actives.
// keep it numeric: no unit symbol after the value

Prompt: For the sequence CCACGGCUGCAACAUCUUUTT against PDE2A , report median seed-adjusted z-score.
Completion: -0.2

Prompt: For the sequence CAAUGAAUUUUUCCGAAGATT against ITGA10 , report median seed-adjusted z-score.
Completion: 0.378

Prompt: For the sequence GGGUCUUCAUGAUUGGUGUTT against SLC44A5 , report median seed-adjusted z-score.
Completion: 0.179

Prompt: For the sequence GACGACUUCUUGAACAGAATT against ZNF207 , report median seed-adjusted z-score.
Completion: -3.1

Prompt: For the sequence GGGUUACAGCUAAAAUUGUTT against OC90 , report median seed-adjusted z-score.
Completion: 0.216

Prompt: For the sequence ACCACCAAAUGAAGAAUAATT against AKR7A3 , report median seed-adjusted z-score.
Completion: 0.455

Prompt: For the sequence GGCUGUAACGUGAACAUCATT against DAPK1 , report median seed-adjusted z-score.
Completion: 0.27

Prompt: For the sequence GGAAAUAGGUCUAGUACUATT against PRPF4B , report median seed-adjusted z-score.
Completion: -2.29

Prompt: For the sequence CCAUUAUUGACUCACCCUATT against CSTF2T , report median seed-adjusted z-score.
Completion: 0.387

Prompt: For the sequence GACUUUGACAAAGCGAUUATT against SPTAN1 , report median seed-adjusted z-score.
Completion: -0.233

Prompt: For the sequence GACCUUCCACAGUACAUCATT against MAST3 , report median seed-adjusted z-score.
Completion: -0.642

Prompt: For the sequence AAAUUAGAGUGAACAAGAATT against NFIC , report median seed-adjusted z-score.
Completion: 0.72
